The reported measurements were obtained from PubChem BioAssay (Tox21).

experiment: qHTS assay for small molecules that induce genotoxicity in human embryonic kidney cells expressing luciferase-tagged ATAD5 (AID 651632); details: HEK293T ATAD5-luciferase induction, 16 h; series mostly up to 83.3 µM; further: nearly all actives have a fitted effect of over 15% in size; on activation: on the % scale 0 is the no-effect control and ±100 the full control effect
Records with an inconclusive call do not appear. Active and inactive are the calls of the source. The call rests on the fitted dose curve; in most records, active means well fitted activation curve with a large enough effect in the repeat runs; inconclusive means weak or mixed curves; inactive means no such curve, though single readings can be large or run the other way.
In this exercise, the only acceptable responses are active, inactive

Reference set (3 entries):
>  <compound>
CC(C(=O)O)c1ccc2c(c1)Cc1cccnc1O2 (stereo not given)

>  <labelClass>
inactive

$$$$
>  <compound>
CCOC(OCC)OCC

>  <labelClass>
inactive

$$$$
>  <compound>
Clc1ccccc1-c1nc(-c2ccncc2)no1

>  <labelClass>
active

$$$$

## Task Which result was noted for this compound in the test: "O=Cc1ccc(Cl)c([N+](=O)[O-])c1"
## Result inactive

## Task Which result was noted for this compound in the test: "Cc1ccc(NC=O)c(C)c1"
## Result inactive

## Task Which result was noted for this compound in the test: "Cc1cc(C)c(C)c(O)c1"
## Result inactive

## Task Which result was noted for this compound in the test: "O=[N+]([O-])c1cccc(I)c1"
## Result inactive

## Task Which result was noted for this compound in the test: "CCCC(=O)OCCC(C)C"
## Result inactive

## Task Which result was noted for this compound in the test: "Cc1cc(C)n(CO)n1"
## Result inactive

## Task Which result was noted for this compound in the test: "CCCOC(C)=O"
## Result inactive

## Task Which result was noted for this compound in the test: "O=C1c2ccccc2C(=O)C1c1ccc2ccccc2n1"
## Result active

## Task Which result was noted for this compound in the test: CCOc1ccc2c(c1)C(C)CC(C)(C)N2 (stereo not given)
## Result inactive

## Task Which result was noted for this compound in the test: CC(C)(Cc1c[nH]c2ccccc12)NCC(O)COc1ccccc1C#N (stereo not given)
## Result inactive

## Task Which result was noted for this compound in the test: CC(O)C(C)O (stereo not given)
## Result inactive

## Task Which result was noted for this compound in the test: "CCCCOc1ccc(N)cc1"
## Result inactive

###

experiment: qHTS assay to identify small molecule antagonists of the estrogen related receptor (ERR) signaling pathway from Tox21 library - cell viability counter screen (AID 1224834); conditions: ERR reporter cells viability, CellTiter-Fluor, 17.5 h; series mostly up to 92.4 µM; further: on the % scale 0 is the no-effect control and ±100 the full control effect; nearly all actives have a fitted effect of over 30% in size
Inconclusive results are not listed. Calls of active or inactive are those of the source. The call rests on the fitted dose curve; in most records, active means well fitted cell-killing curve with a large enough effect in the repeat runs; inconclusive means weak or mixed curves; inactive means flat fitted curve, though single readings scatter.
readoutType: viability change, negative = cytotoxic

>  <molecule>
COC=O

>  <experimentalValue>
0.652% [at 8.39 µM] (inactive)

$$$$
>  <molecule>
CCOc1ccc2c(c1)C(C)CC(C)(C)N2 (configuration not stated)

>  <experimentalValue>
inactive

$$$$
>  <molecule>
O=C(Cl)c1cc(Cl)cc(Cl)c1

>  <experimentalValue>
inactive

$$$$
>  <molecule>
Cc1ccc(S(=O)(=O)NC(=O)NC2CCCC2)cc1

>  <experimentalValue>
inactive

$$$$
>  <molecule>
CC(C)(C)NCC(O)COc1ccc(NC(=O)NC2CCCCC2)cc1 (configuration not stated)

>  <experimentalValue>
inactive

$$$$

## Task Form field: reported viability change, negative = cytotoxic of "C[Si](C)(C)O[Si](C)(C)O[Si](C)(C)C"
## Result inactive

## Task Form field: reported viability change, negative = cytotoxic of CC(C(=O)O)c1ccc2c(c1)Cc1cccnc1O2 (configuration not stated)
## Result inactive

###

target: Cytochrome P450 2C9 (Homo sapiens) (UniProt P11712); experiment: Cytochrome P450 Family 2 Subfamily C Member 9 (CYP2C9) small molecule antagonists: luciferase reporter qHTS assay (AID 1671198); conditions: P450-Glo CYP2C9 enzyme assay, luciferin luminescence; series mostly up to 115 µM; further: nearly all actives have a fitted effect of over 50% in size
Sequence (P11712 whole entry, looked up): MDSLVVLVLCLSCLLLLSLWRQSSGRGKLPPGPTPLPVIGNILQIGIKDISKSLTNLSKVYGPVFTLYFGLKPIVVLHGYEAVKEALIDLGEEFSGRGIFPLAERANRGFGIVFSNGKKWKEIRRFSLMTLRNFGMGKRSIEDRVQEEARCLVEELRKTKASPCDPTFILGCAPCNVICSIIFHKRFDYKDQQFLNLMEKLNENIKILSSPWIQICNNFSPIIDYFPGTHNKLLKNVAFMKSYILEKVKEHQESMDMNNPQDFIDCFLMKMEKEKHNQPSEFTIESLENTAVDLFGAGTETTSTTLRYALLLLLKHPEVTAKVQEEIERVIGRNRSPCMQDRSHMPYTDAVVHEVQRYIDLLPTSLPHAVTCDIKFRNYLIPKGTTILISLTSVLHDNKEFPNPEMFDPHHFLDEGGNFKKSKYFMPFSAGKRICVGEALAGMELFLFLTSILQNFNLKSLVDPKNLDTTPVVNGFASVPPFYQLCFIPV
Results filed as inconclusive are left out. Calls of active or inactive are those of the source. Calls follow the shape of the dose curve; as a rule, active = well fitted inhibition curve with a large enough effect in the repeat runs; inconclusive = weak or mixed curves; inactive = no such curve, though single readings can be large or run the other way.
In this exercise, the only acceptable responses are 1.0 = active, 0.0 = inactive

## Task Which result was noted for this molecule in the test: "O=C(O)c1c2ccccc2cc2ccccc12"
## Result 1.0

## Task Which result was noted for this molecule in the test: CC(CCl)OC(C)CCl (centres undefined)
## Result 0.0

## Task Which result was noted for this molecule in the test: "CCCCCCOC(=O)c1ccccc1"
## Result 0.0

## Task Which result was noted for this molecule in the test: "CCCCCCCCS"
## Result 0.0

## Task Which result was noted for this molecule in the test: "CCCCCCCCCCCCN1CCOCC1"
## Result 0.0

## Task Which result was noted for this molecule in the test: "CO[C@@H]1COCC[C@@H]1N[C@@H]1CC[C@@](C(=O)N2CCc3ncc(C(F)(F)F)cc3C2)(C(C)C)C1"
## Result 0.0

## Task Which result was noted for this molecule in the test: "Nc1cccc2c(=O)[nH][nH]c(=O)c12"
## Result 0.0

## Task Which result was noted for this molecule in the test: "O=C(Cl)c1ccc(F)c(Cl)c1"
## Result 0.0

## Task Which result was noted for this molecule in the test: "CCOc1ccccc1O"
## Result 0.0

## Task Which result was noted for this molecule in the test: "O=c1c2ccccc2oc2ccccc12"
## Result 1.0

## Task Which result was noted for this molecule in the test: N#C[C@@H]1CC(F)(F)CN1C(=O)CNC1CC2CCC(C1)N2c1ncccn1 (some centres undefined)
## Result 1.0

## Task Which result was noted for this molecule in the test: Clc1cccc(C(c2ccc3nc[nH]c3c2)n2ccnc2)c1 (centres undefined)
## Result 1.0

## Task Which result was noted for this molecule in the test: "CCCCOC(=O)CC#N"
## Result 1.0

## Task Which result was noted for this molecule in the test: "CC1(C)C(=O)NC(=O)N1CO"
## Result 0.0

###

assay: qHTS assay to test for compound auto fluorescence at 460 nm (blue) in HepG2 cell free culture (AID 720685); conditions: Cell-free culture medium, blue autofluorescence 405/460 nm; series mostly up to 91.3 µM; further: on the % scale 0 is the no-effect control and ±100 the full control effect
Active and inactive are the calls of the source. The call rests on the fitted dose curve; in most records, active means well fitted curve in the direction sought with a large enough effect in the repeat runs; inconclusive means weak or mixed curves; inactive means flat fitted curve, though single readings scatter.
readoutType: fluorescence, % of fluorescent control

Known fluorescence, % of fluorescent control results, listed for orientation:
>  <compound>
CC(C)Cc1nccs1

>  <experimentalValue>
inactive

$$$$
>  <compound>
O=C(O)c1ccccc1[N+](=O)[O-]

>  <experimentalValue>
inactive

$$$$
>  <compound>
C=CC(=O)OCCCCCCCCCC

>  <experimentalValue>
inactive

$$$$
>  <compound>
COc1ccc(C(=O)Nc2ccccc2)cc1[N+](=O)[O-]

>  <experimentalValue>
inactive

$$$$
>  <compound>
CCCCOC(=O)C(C)Oc1ccc(Oc2ccc(C(F)(F)F)cn2)cc1 (stereo not drawn)

>  <experimentalValue>
inactive

$$$$
>  <compound>
CC(=O)c1ccc(Cl)c(Cl)c1Cl

>  <experimentalValue>
inactive

$$$$
>  <compound>
CC(C)(C)NCC(O)COc1ccc(NC(=O)NC2CCCCC2)cc1 (stereo not drawn)

>  <experimentalValue>
inactive

$$$$
>  <compound>
C[C@@H](O)[C@H]1C(=O)N2C(C(=O)O)=C(S[C@@H]3CN[C@H](CNS(N)(=O)=O)C3)[C@H](C)[C@H]12

>  <experimentalValue>
inactive

$$$$

## Task Form field: reported fluorescence, % of fluorescent control of "CCCCCCCCCCCCSC#N"
## Result inactive

## Task Form field: reported fluorescence, % of fluorescent control of CC(C)=CCCC(C)C=O (stereo not drawn)
## Result inactive

## Task Form field: reported fluorescence, % of fluorescent control of "O=C(Cl)c1ccc(F)c(Cl)c1"
## Result inactive

## Task Form field: reported fluorescence, % of fluorescent control of CC(C)(Cc1c[nH]c2ccccc12)NCC(O)COc1ccccc1C#N (stereo not drawn)
## Result inactive

## Task Form field: reported fluorescence, % of fluorescent control of "NC(=O)c1ccccc1C(N)=O"
## Result inactive

###

assay: qHTS assay to identify small molecule antagonists of the androgen receptor (AR) signaling pathway using the MDA cell line - cell viability counter screen (AID 743041; further: on the % scale 0 is the no-effect control and ±100 the full control effect; nearly all actives have a fitted effect of over 45% in size); details: MDA-kb2 viability, CellTiter-Fluor, 16 h, cells co-treated with R1881 androgen agonist; series mostly up to 70.3 µM
Results filed as inconclusive are left out. Activity calls are given as the source filed them. Calls follow the shape of the dose curve; as a rule, active = well fitted cell-killing curve with a large enough effect in the repeat runs; inconclusive = weak or mixed curves, or effect the other way; inactive = flat fitted curve, though single readings scatter.
readoutType: outcome

>  <smilesString>
O=C(OCCOCCOCCOC(=O)c1ccccc1)c1ccccc1

>  <readoutType>
outcome

>  <experimentalValue>
inactive

$$$$
>  <smilesString>
O=C(OCCCCCOC(=O)c1ccccc1)c1ccccc1

>  <readoutType>
outcome

>  <experimentalValue>
inactive

$$$$
>  <smilesString>
O=C(c1ccc(Cl)cc1)c1ccc(Cl)cc1

>  <readoutType>
outcome

>  <experimentalValue>
inactive

$$$$

###

assay: qHTS assay for identifying genotoxic compounds that show differential cytotoxicity against isogenic chicken DT40 cell lines with known DNA damage response pathways - Rev3 mutant cell line (AID 743014); conditions: chicken DT40 Rev3-/- viability, CellTiter-Glo, 40 h; series mostly up to 68.4 µM; further: nearly all actives have a fitted effect of over 55% in size
Inconclusive results are not listed. Activity calls are given as the source filed them. Calls follow the shape of the dose curve; as a rule, active = well fitted cell-killing curve with a large enough effect in the repeat runs; inconclusive = weak or mixed curves, or effect the other way; inactive = no such curve, though single readings can be large or run the other way.
In this exercise, the only acceptable responses are active, inactive

>  <compound>
O=c1[nH]nc(-c2ccc([N+](=O)[O-])o2)o1

>  <labelClass>
active

$$$$

## Task Which result was noted for this compound in the test: "CCCCCCCCOCCCN"
## Result active

## Task Which result was noted for this compound in the test: "Cc1c(Cl)cccc1[N+](=O)[O-]"
## Result inactive

## Task Which result was noted for this compound in the test: "CCC(CC)C(=O)O"
## Result inactive

## Task Which result was noted for this compound in the test: "CC(=O)Oc1cccc2c1C(=O)c1c(OC(C)=O)cc(C(=O)O)cc1C2=O"
## Result inactive

## Task Which result was noted for this compound in the test: C=CC(O)CCCCC (stereo unspecified)
## Result inactive

## Task Which result was noted for this compound in the test: "CCCN(C1CCN(C(=O)C2CCNCC2)CC1)[C@@H]1CCc2ccc(OC)cc2C1"
## Result active

## Task Which result was noted for this compound in the test: "NC(=O)c1ccccc1C(N)=O"
## Result inactive

## Task Which result was noted for this compound in the test: "C=Cc1ccc(C=C)cc1"
## Result inactive

## Task Which result was noted for this compound in the test: "[O-][n+]1ccc(Cl)cc1"
## Result inactive
